# System: biotinyl-Phe-oxazolone
# Protocol description: self-aminoacylation, catalytic enhancement (BFO) (fold over background); higher = more active; k-Seq, kA / k0A0; sequences stand for … in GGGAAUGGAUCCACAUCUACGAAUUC…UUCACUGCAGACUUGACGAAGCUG
Fewer inactive variants are shown than the library holds.
Measured property: self-aminoacylation
Give bare numbers.

* AAGUUCGCUAAUAGUAGCAAG [Fam3.1 aminoacylation ribozyme variant] | 3.5

// for each sequence below, give its self-aminoacylation
1. AUUACCCUGGUCAUCGAGGCA [Fam2.1 aminoacylation ribozyme variant]
2. ACUAACCUGGUCAUCGAGUGA [Fam2.1 aminoacylation ribozyme variant]

Data returned:
1. 1.25
2. 2.68

// for each sequence below, give its self-aminoacylation
1. GUACUUCAAACUAUCGGUCUG [Fam1A.1 aminoacylation ribozyme variant]
2. AUGCACCUAGGUCAUCGGCUG [Fam2.2 aminoacylation ribozyme variant]
3. AUUCAACUAGGUCAUCGGGUU [Fam2.2 aminoacylation ribozyme variant]

Data returned:
1.78
11
4.65

// for each sequence below, give its self-aminoacylation
1. CGACACUUCAAUCAAUCGGUC [Fam1B.1 aminoacylation ribozyme variant]
2. AUUGACCUAGGUUAUCGGGUG [Fam2.2 aminoacylation ribozyme variant]
3. CUACUUCAAACAAGCUGUCUG [Fam1A.1 aminoacylation ribozyme variant]

Data returned:
14.7
29.1
0.642

====

# System: biotinyl-Trp-oxazolone
# Protocol description: self-aminoacylation, catalytic enhancement (BWO) (fold over background); higher = more active; k-Seq, kA / k0A0; sequences stand for … in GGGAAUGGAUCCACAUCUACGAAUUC…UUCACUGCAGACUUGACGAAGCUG
Fewer inactive variants are shown than the library holds.
Tick 1.0 if self-aminoacylation is 3 or greater. Tick 0.0 if self-aminoacylation is less than 3.

For orientation, consider the following solved cases.
• AUUAGCCUGGUCAUCGCGUGA [Fam2.1 aminoacylation ribozyme variant] = 1.0
• AUUACCCUGGUCCGCGAGUGA [Fam2.1 aminoacylation ribozyme variant] = 1.0
• CUACUUCAAGCAAUCGCUCUG [Fam1A.1 aminoacylation ribozyme variant] = 0.0
• AUUACCCCGGUCAUCUAGUGA [Fam2.1 aminoacylation ribozyme variant] = 1.0
• AAGUUUGUUAAUAGUCGCAAA [Fam3.1 aminoacylation ribozyme variant] = 0.0

Data request: Is reported self-aminoacylation greater than or equal to 3 here: AUUAACCUAGGUCAGCGGGUG [Fam2.2 aminoacylation ribozyme variant]
Data returned: 0.0

Data request: Is reported self-aminoacylation greater than or equal to 3 here: AUGUUUUCUAAUAGUCGCAAG [Fam3.1 aminoacylation ribozyme variant]
Data returned: 0.0

Data request: Is reported self-aminoacylation greater than or equal to 3 here: AUUACACUCGUCAUCGAGUGA [Fam2.1 aminoacylation ribozyme variant]
Data returned: 1.0

Data request: Is reported self-aminoacylation greater than or equal to 3 here: CUACUUCGCACAAUCGGUCUG [Fam1A.1 aminoacylation ribozyme variant]
Data returned: 0.0

====

# System: biotinyl-Trp-oxazolone
# Protocol description: self-aminoacylation, catalytic enhancement (BWO) (fold over background); higher = more active; k-Seq, kA / k0A0; sequences stand for … in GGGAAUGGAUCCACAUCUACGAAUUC…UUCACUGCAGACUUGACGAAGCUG
This sample holds only a part of the variants without activity.
Please provide measured self-aminoacylation for the entries that follow.
One number for each entry.

* CCACACUUCAAGCAUGCGGUC [Fam1B.1 aminoacylation ribozyme variant] | 2.22
* ACUACGCUGGUCAUCGAGUGA [Fam2.1 aminoacylation ribozyme variant] | 7.58
* CCACACUUCAAGAAAUCGGAC [Fam1B.1 aminoacylation ribozyme variant] | 0.393
* ACUCACCUAGGUUAUCGGGUG [Fam2.2 aminoacylation ribozyme variant] | 7.29
* AUUGCCUUGGUCAUCGAGUGA [Fam2.1 aminoacylation ribozyme variant] | 8.73

// for each sequence below, give its self-aminoacylation
1. CUACUUCAAACAAUCGGUCAG [Fam1A.1 aminoacylation ribozyme variant]
2. CGGUUUGCUAAUAGUCGCAAG [Fam3.1 aminoacylation ribozyme variant]
3. AUUACCCUGUUCAUUGAGUGA [Fam2.1 aminoacylation ribozyme variant]
4. CCACACUUCAAGCAAUCCCUC [Fam1B.1 aminoacylation ribozyme variant]

Data returned:
[7.09, 1.68, 16.3, 1.35]

// for each sequence below, give its self-aminoacylation
1. AUUCAGAUAGGUCAUCGGGUG [Fam2.2 aminoacylation ribozyme variant]
2. GCACACUUCAAGCAAUCGGUA [Fam1B.1 aminoacylation ribozyme variant]
3. AUUACCCUGGUCAUCGACUGU [Fam2.1 aminoacylation ribozyme variant]
4. AUUACCCUGUUCAUCGUGUGA [Fam2.1 aminoacylation ribozyme variant]
5. AAGUUAGCUCAUAGUCGCAAG [Fam3.1 aminoacylation ribozyme variant]
6. AUUACCCAGGUCAUCGAUUGA [Fam2.1 aminoacylation ribozyme variant]
7. CUAUUUCAAAAAAUCGGUCUG [Fam1A.1 aminoacylation ribozyme variant]

Data returned:
[5.8, 3.53, 0.723, 8.71, 1.81, 0.511, 1.73]
